Tested on: NCI-H460 lung
Select the matching outcome among True = active, False = inactive

Check out these entries, answers already filled in.
COc1cc(CCC[P+](c2ccccc2)(c2ccccc2)c2ccccc2)c(OC)c2c1OCO2 | False
Cc1ccc2c(C(C[N+](=O)[O-])c3ccccc3)c(-c3ccccc3)[nH]c2c1 (stereo not drawn) | False
COc1ccc(-c2ncnc3c2ncn3CC#CCCl)cc1 | False

// query Identify the outcome logged in this assay for the compound shown: COc1ccc2c(c1)CCC1C2CC[C@@]2(C)C1CC[C@@H]2NC(=O)Cc1ccc(O)c(O)c1 (stereo partly drawn)
// result False

// query Please let me know the test result on file for CC1SC(c2ccccc2Cl)N(NC(=O)C(O)c2ccccc2)C1=O (stereo not drawn) .
// result False

// query Hey, what did the test say about CN1C(=O)CCC(N2C(=O)c3cccc(NCCOCCOCCNC(=O)c4cc5c(o4)C(=O)c4ccccc4C5=O)c3C2=O)C1=O (stereo not drawn) ?
// result False

// query Tell me the assay call for Cc1ccc(CNc2ccc3nc(CCC4CCCCC4)[nH]c3c2)cc1 please.
// result False

// query Record request — test call for COc1ccc2cc(-c3cnc4nonc4n3)ccc2c1
// result False

// query # outcome recorded in this test, key = O=C(O)Cc1cccc2c(=O)cc(-c3ccccc3)oc12
// result False

// query # lookup: test call for COc1cc2nc(N3CCCN(C)CC3)nc(NC3CCN(Cc4ccccc4)CC3)c2cc1OC
// result False

// query # outcome recorded in this test, key = NCCCCC(NC(=O)C(N)CCCN=C(N)N)C(=O)NC(CCCCN)C(=O)NC(CCCN=C(N)N)C(=O)NC(CCCN=C(N)N)C(=O)NC(CCC(N)=O)C(=O)NC(CCCN=C(N)N)C(=O)NC(CCCN=C(N)N)C(=O)NC(CCCN=C(N)N)C(=O)NCC(=O)NCC(=O)O (stereo not drawn)
// result False

// query Please let me know the test result on file for CC1=C(C#N)C23C(=O)N(c4ccccc4)C(=O)C2=C(O)C=CC3(O)N1Cc1ccc(Cl)cc1Cl (stereo not drawn) .
// result False

// query Query: recorded result category for CC1=C([Te]c2ccccc2)C(=O)c2ccccc2C1=O in this test
// result True
